target_system: T1, hCMV gH, gL, UL128, UL130 and UL131A co-expressed in HEK293T cells (human cytomegalovirus, UniProt P12824 24-743; P16832 31-278; P16837 1-171; P16772 1-214)
T1 construct: whole, on cells; also called gH + gL + UL128 + UL130 + UL131A; gH/gL/UL128-130 complex
experiment: cell cross-competition, 20x excess; competitor 6G4-biotin
readout_type: Inhibition of binding (%)
# output: bare number, implied unit %

Suppose we examine the binder 8C15 (antibody, V domains shown, human IgG mAb; also called 8C15-biotin) VH: QVQLQESGPGLVKPSETLSLTCTVSGGSIRSYYWSWIRQPPGKGLEWIGHIYYSGNTNYSPSLQSRVTISLDTPKNQFSLRLSSVTAADTAVYYCARHDVIVVRGVFDVWGQGTVVTVSS VL: QSALTQPASVSGSPGQSITISCTGTSSDIGTYNLVSWYQQHPGKAPKVLIYDGSKRPSGVSSRFSASKSGNTASLTISGLQAEDETDYYCCSYAGTSDFFVVFGGGTKLTVL ; what Inhibition of binding (%) value has been reported?
100

// Inhibition of binding (%) lookup, key: 8J16 (antibody, V domains shown, human IgG mAb; also called 8J16-biotin) VH: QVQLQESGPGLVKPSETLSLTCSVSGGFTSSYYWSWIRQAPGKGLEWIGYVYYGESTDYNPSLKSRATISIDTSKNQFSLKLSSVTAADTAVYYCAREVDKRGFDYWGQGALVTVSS VL: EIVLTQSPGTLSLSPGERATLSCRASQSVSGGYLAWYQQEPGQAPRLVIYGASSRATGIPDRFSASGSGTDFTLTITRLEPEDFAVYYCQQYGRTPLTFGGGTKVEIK
100

Please give the measured Inhibition of binding (%) for this binder: 2C12 (antibody, V domains shown, human IgG mAb; also called 2C12-biotin) VH: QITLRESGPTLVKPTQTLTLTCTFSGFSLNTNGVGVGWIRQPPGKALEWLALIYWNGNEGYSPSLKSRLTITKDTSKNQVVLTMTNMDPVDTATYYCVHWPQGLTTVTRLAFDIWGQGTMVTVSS VL: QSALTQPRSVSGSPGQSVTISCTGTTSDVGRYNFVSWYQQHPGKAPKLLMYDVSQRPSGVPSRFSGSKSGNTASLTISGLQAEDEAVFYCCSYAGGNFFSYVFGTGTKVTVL
100
